molecular target: T1, recombinant human HGF (R&D Systems, Catalog No. 294-HGN-025) (human, UniProt P14210 32-728); assay: SPR, antibody captured by anti-mouse Ig, HGF injected, 25 C
T1 construct: Mature HGF is a disulfide-linked heterodimer of alpha and beta chain cut from one precursor; also called rhHGF (R&D Systems); rhHGF
T1 sequence (P14210 32-728 limits assumed): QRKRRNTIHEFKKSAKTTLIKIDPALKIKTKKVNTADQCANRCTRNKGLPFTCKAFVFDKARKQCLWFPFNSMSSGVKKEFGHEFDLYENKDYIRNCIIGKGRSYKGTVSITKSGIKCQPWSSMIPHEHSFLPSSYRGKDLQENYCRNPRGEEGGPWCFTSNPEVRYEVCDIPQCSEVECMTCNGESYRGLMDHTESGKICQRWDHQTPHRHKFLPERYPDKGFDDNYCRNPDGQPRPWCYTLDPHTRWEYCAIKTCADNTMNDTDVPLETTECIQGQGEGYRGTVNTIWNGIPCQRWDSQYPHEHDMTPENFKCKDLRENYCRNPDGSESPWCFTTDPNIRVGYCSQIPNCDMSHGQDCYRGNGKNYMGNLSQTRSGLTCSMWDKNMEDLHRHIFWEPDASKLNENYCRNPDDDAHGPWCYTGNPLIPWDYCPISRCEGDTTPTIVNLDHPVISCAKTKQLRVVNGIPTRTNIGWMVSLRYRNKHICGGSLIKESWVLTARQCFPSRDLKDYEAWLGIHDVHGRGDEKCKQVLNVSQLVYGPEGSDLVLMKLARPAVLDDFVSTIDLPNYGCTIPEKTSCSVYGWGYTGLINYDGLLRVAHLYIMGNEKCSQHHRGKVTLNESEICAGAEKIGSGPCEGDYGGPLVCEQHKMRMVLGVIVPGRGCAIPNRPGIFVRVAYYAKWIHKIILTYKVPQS
Below, each entry is listed alongside its reported kon.

Consider the following illustrative entries.
Look up kon for this binder: anti-hHGF monoclonal antibody 1A3 (antibody, mouse IgG1, kappa, V domains shown, Murine IgG1 kappa from hybridoma) VH: EVQLVESGGGLVQPGGSLKLSCAASEFTFSNYYMSWVRQTPEKRLQWVAYISPGGGSSYYPASVKGRFTISRDNAKNTLYLQMSSLKSEDTAMYYCARQGDGYYGDYAMDYWGQGTSVTVSS VL: DIQMTQSPASLSVSVGETVTITCRASENIYSNLAWYQQKQGKSPQLLVYAATNLADGVPSRFSGSGSGTQFSLKINSLQSEDFGTYYCQHFWGTPYTFGGGTKLEIKR
1.7e+06 M⁻¹ s⁻¹

Fill blank: measured kon of the binder anti-hHGF monoclonal antibody 1F3 (antibody, mouse IgG1, kappa, V domains shown, Murine IgG1 kappa from hybridoma) VH: EVQLVESGGGLVQSGGSLKLSCAASGFTFSNYFMSWVRQTPEKRLEWVAYISSGGGSTYYPDSVKGRFTISRDNAKNTLYLQMSSLKSEDTAMYYCVRQGDGYYGDYAMDYWGQGTSVTVSS VL: DIQMTQSPASLSVSVGETVTITCRASENIYSNLAWYQQKQGKSPQLLVYDATHLPDGVPSRFSGSGSGTQFSLKINSLQSEDFGSYYCQHFWGTPYTFGGGTRLEIKR is ____.
1.5e+06 M⁻¹ s⁻¹

Would you mind telling me what kon value was observed for anti-hHGF monoclonal antibody 3B6 (antibody, mouse IgG1, kappa, V domains shown, Murine IgG1 kappa from hybridoma) VH: QVQLQQSGAELVRPGSSVKISCKASGYVFSSYWMNWVKQRPGQGLEWIGQIYPGDGDSNYNGNFKGKATLTADKSSSTAYMQLSSLTSEDSAVYFCASQLGLRENYFDYWGQGTTLTVSS VL: DIKMTQSPSSMYASLGERVTITCKASQDIKSYLSWFQQKPGKSPKTLIYRVNRLVDGVPSRFSGSGSGQDSSLTITSLENEDMGIYYCLQYDEFPFTFGGGTKLEIKR ?
2e+06 M⁻¹ s⁻¹

Given the entry anti-hHGF monoclonal antibody 3A12 (antibody, mouse IgG1, kappa, V domains shown, Murine IgG1 kappa from hybridoma) VH: EVQLVESGGGLVQPGGSLKISCAASGFTFSNYFMSWVRQTPEKRLEWVAYISSGGGSTYYPDSVKGRFTISRDNAKNTLYLQMNSLKSEDTAMYYCVRQGDGYYGDYAMDYWGQGTSVTVSS VL: DIQMTQSPASLSVSVGETVTITCRASENIYINLAWYQQKQGKSPQLLVHAATKLADGVPSRFSGSGSGTQYSLKINSLQSEDFGSYYCQHFWGTPYTFGGGTKLEIKR , report its measured kon.
1.6e+06 M⁻¹ s⁻¹

Now for the binder whose kon we want.
Find the recorded kon belonging to anti-hHGF monoclonal antibody 1D3 (antibody, mouse IgG1, kappa, V domains shown, Murine IgG1 kappa from hybridoma) VH: EVQLVESGGGLVQPGGSLKLSCAASGFTFSDYYMSWVRQTPEKRLEWVAYISSGGGSTYYPDSVKGRFTISRDNAKNTLYLQMSSLKSEDTAIYYCVRQGDGYYGDYAMDYWGQGTSVIVSS VL: DIQMTQSPASLSVSVGETVTITCRTSENIYSNLAWYQQKQGKSPQLLIYAATNLADGVPSRFSGSGSGTQFSLRINSLQSEDFGRYYCQHFWGTPYTFGGGTKLEIKR and report it.
1.7e+06 M⁻¹ s⁻¹
